Data provenance: paper PMC5540273

Tested on: RIOK3;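 note: KINOMEscan kinase panel screen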
Conditions: concentration: 1 μM, replicates: in singlicate; n = 1
PROPERTY_LABEL: %Inh (%)

- COMPOUND: "CNc1cc(-c2ccc3c(N)n[nH]c3c2)nc(N)n1"
  PROPERTY_LABEL: "%Inh"
  ENDPOINT_RESULT: 72
- COMPOUND: "Cn1cncc1-c1cc2c(Nc3ccc(OCc4ccccc4)cc3)ncnc2cn1"
  PROPERTY_LABEL: "%Inh"
  ENDPOINT_RESULT: 6
- COMPOUND: "Cl.Cl.Cl.N#Cc1ccc(CCNc2nccc(-c3cccc(CN4CCNCC4)c3)n2)cc1"
  PROPERTY_LABEL: "%Inh"
  ENDPOINT_RESULT: 37
- COMPOUND: "Cc1cnc(N)c(/C=C/c2cncc(C(=O)NCCc3ccc(Cl)cc3Cl)c2)c1.Cl"
  PROPERTY_LABEL: "%Inh"
  ENDPOINT_RESULT: 0
- COMPOUND: "COc1ccc(CSc2nnc(-c3ccc4nccn4c3)o2)cc1C(F)(F)F"
  PROPERTY_LABEL: "%Inh"
  ENDPOINT_RESULT: 17
- COMPOUND: "CC(C)c1ccc(O)cc1Nc1ccnc2ccc(C(F)(F)F)cc12"
  PROPERTY_LABEL: "%Inh"
  ENDPOINT_RESULT: 0
- COMPOUND: "Cc1cccc2c(-c3ccncn3)c(-c3ccc(F)cc3)nn12"
  PROPERTY_LABEL: "%Inh"
  ENDPOINT_RESULT: 5
- COMPOUND: "Cc1ccccc1Cn1ccn2c(=O)cc(N3CCOCC3)nc12"
  PROPERTY_LABEL: "%Inh"
  ENDPOINT_RESULT: 0
- COMPOUND: "Cc1ccc(NC(=O)Nc2ccc(Cl)cc2)cc1-c1ccc(C(=O)Nc2ccncc2)cc1"
  PROPERTY_LABEL: "%Inh"
  ENDPOINT_RESULT: 31
- COMPOUND: "FC(F)(F)c1ccccc1-c1cc(-c2c[nH]nc2-c2ccccn2)ccn1"
  PROPERTY_LABEL: "%Inh"
  ENDPOINT_RESULT: 10
- COMPOUND: "Cc1nccc(-c2c(-c3ccc(F)cc3)ncn2CCCN2CCOCC2)n1.Cl"
  PROPERTY_LABEL: "%Inh"
  ENDPOINT_RESULT: 27
- COMPOUND: "Cc1ccccc1-c1cc(-c2c[nH]nc2-c2ccccn2)ccn1"
  PROPERTY_LABEL: "%Inh"
  ENDPOINT_RESULT: 0
- COMPOUND: "COC(=O)C(Cc1ccccc1)NC(=O)NC1CCN(c2ccnc(Nc3ccc(F)cc3)n2)C1 (stereo not drawn)"
  PROPERTY_LABEL: "%Inh"
  ENDPOINT_RESULT: 34
- COMPOUND: "COc1ccc(-c2coc3ccc(-c4nnc(C)o4)cc23)cc1"
  PROPERTY_LABEL: "%Inh"
  ENDPOINT_RESULT: 0
- COMPOUND: "O=C(Nc1n[nH]c2nc(-c3ccco3)c(Br)cc12)C1CCN(Cc2ccccc2)C1.O=C(O)[C@H](O)[C@@H](O)C(=O)O (stereo not drawn)"
  PROPERTY_LABEL: "%Inh"
  ENDPOINT_RESULT: 0
- COMPOUND: "Cc1c(Cn2c3ccccc3n3c(=O)cc(N4CCOCC4)nc23)cccc1C(F)(F)F"
  PROPERTY_LABEL: "%Inh"
  ENDPOINT_RESULT: 0
- COMPOUND: "COc1ccc(CSc2nnc(-c3ccc4ncsc4c3)o2)cc1C(F)(F)F"
  PROPERTY_LABEL: "%Inh"
  ENDPOINT_RESULT: 22
- COMPOUND: "CN1c2ccc(-c3ccc(C(N)=O)cc3)cc2-c2[nH]ncc2S1(=O)=O"
  PROPERTY_LABEL: "%Inh"
  ENDPOINT_RESULT: 29
